The following molecules are shown together with reported GI50 values.
Tested on: 786-0
Experiment: NCI tumour cell line growth inhibition, 48 h
Active and inactive are the calls of the source. Rule as the data show it: active = GI50 up to about 1.1 µM and inactive = higher.

>  <molecule>
COc1cc(C(C)c2cc3c(cc2OCCCCCOc2cc4c(cc2C(C)c2cc(OC)c(OC)c(OC)c2)OCO4)OCO3)cc(OC)c1OC (centres undefined)

>  <GI50>
> 100 µM (inactive)

$$$$
>  <molecule>
C[C@H](CC[C@@H](O)C(C)(C)O)[C@H]1CC[C@@]2(C)[C@@H]3CC=C4[C@@H](CC[C@H](O)C4(C)C)[C@]3(C)C(=O)C[C@]12C [BRYODULCOSIGENIN]

>  <GI50>
38.3 µM (inactive)

$$$$
>  <molecule>
C=C=C(C)C(=O)N(C(C)C)C(C)C

>  <GI50>
> 100 µM (inactive)

$$$$

Inquiry: Returns the measured GI50 for the input molecule. Input: C(/C=N/c1ccccc1)=C(/Nc1ccccc1)C12CC3CC(CC(C3)C1)C2
Reply text: 15 µM (inactive)
